This collection of values is drawn from ChEMBL document CHEMBL1140463.

molecular target: P2Y purinoceptor 12 (Homo sapiens, UniProt Q9H244); experiment: Displacement of [125I] labeled ligand from human P2Y12 receptor in human platelets
Sequence (Q9H244 whole entry): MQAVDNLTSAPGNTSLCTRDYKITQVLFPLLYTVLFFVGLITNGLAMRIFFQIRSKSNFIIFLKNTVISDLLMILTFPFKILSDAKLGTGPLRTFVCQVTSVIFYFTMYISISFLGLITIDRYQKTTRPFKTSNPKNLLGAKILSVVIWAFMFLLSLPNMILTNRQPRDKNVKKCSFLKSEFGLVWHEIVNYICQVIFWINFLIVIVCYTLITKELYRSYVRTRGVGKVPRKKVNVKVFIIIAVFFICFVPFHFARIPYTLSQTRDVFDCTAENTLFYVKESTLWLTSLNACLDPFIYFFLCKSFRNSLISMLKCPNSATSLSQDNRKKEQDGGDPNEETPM
ENDPOINT_NAME: pKi
In plain terms, pKi is the concentration in mol/L turned into minus its base-10 logarithm.

Completed entries (count: 2):
>>> print(df.to_string())
                                   compound                              assay_system  numeric_value
0  CCCSc1nc(N[C@@H]2C[C@H]2c2ccccc2)c2nnn([C@@H]3C[C@H](C(=O)O)[C@@H](O)[C@H]3O)c2n1  P2Y purinoceptor 12 (Homo sapiens, UniProt Q9H244)           9.60
1  CCCSc1nc(N[C@@H]2C[C@H]2c2ccccc2)c2nnn([C@@H]3C[C@H](O)[C@@H](O)[C@H]3O)c2n1  P2Y purinoceptor 12 (Homo sapiens, UniProt Q9H244)           8.70

Sample CCCSc1nc(N[C@@H]2C[C@H]2c2ccccc2)c2nnn([C@@H]3CC[C@@H](O)[C@H]3O)c2n1 — what was its pKi? 8.60

Consider the compound CCCCNc1nc(SCCC)nc2c1nnn2[C@@H]1C[C@H](C(=O)O)[C@@H](O)[C@H]1O and give its measured pKi. 8.30

Please report the recorded pKi for OC[C@H]1C[C@@H](n2nnc3c(N[C@@H]4C[C@H]4c4ccc(F)c(F)c4)nc(SCCC(F)(F)F)nc32)[C@H](O)[C@@H]1O . 8.30

I would be grateful if you could share the reported pKi for CCCSc1nc(N[C@@H]2C[C@H]2c2ccccc2)c2nnn([C@@H]3C[C@H](OCCO)[C@@H](O)[C@H]3O)c2n1 . 8.50

I have this compound here, CCCSc1nc(N[C@@H]2C[C@H]2c2ccc(F)c(F)c2)c2nnn([C@@H]3C[C@H](OCCO)[C@@H](O)[C@H]3O)c2n1 [TICAGRELOR] , and I need its recorded pKi. 8.70

* * *

test: Plasma clearance in dog at 1 mg/kg, iv; format: ADME, organism-based, Canis lupus familiaris; set-up: dose 1 mg/kg, route intravenous
Parameter: clearance. Scope: all listed entries.
Numbers only here, please. The scale is mL/min/kg.

Dear colleague, I am looking for the recorded clearance of the following compound: CCCSc1nc(N[C@@H]2C[C@H]2c2ccc(F)c(F)c2)c2nnn([C@@H]3C[C@H](OCCO)[C@@H](O)[C@H]3O)c2n1 9

Given OC[C@H]1C[C@@H](n2nnc3c(N[C@@H]4C[C@H]4c4ccc(F)c(F)c4)nc(SCCC(F)(F)F)nc32)[C@H](O)[C@@H]1O , state its recorded clearance. 16.5

* * *

assay: Oral bioavailability in rat at 3 to 10 mg/kg; type: ADME, organism-based; conditions: in vivo
A collection of molecules and their measured bioavailability

>>> df
                               entry_smiles  result
0  CCCSc1nc(N[C@@H]2C[C@H]2c2ccccc2)c2nnn([C@@H]3C[C@H](O)[C@@H](O)[C@H]3O)c2n1     50%
1  CCCSc1nc(N[C@@H]2C[C@H]2c2ccccc2)c2nnn([C@@H]3C[C@H](C(N)=O)[C@@H](O)[C@H]3O)c2n1    < 5%
2  OC[C@H]1C[C@@H](n2nnc3c(N[C@@H]4C[C@H]4c4ccc(F)c(F)c4)nc(SCCC(F)(F)F)nc32)[C@H](O)[C@@H]1O     17%

Fill in: bioavailability of CCCCNc1nc(SCCC)nc2c1nnn2[C@@H]1C[C@H](C(=O)O)[C@@H](O)[C@H]1O is ___ < 5%
